TGI: recorded values
Test system: KM12 colon
testSummary: NCI tumour cell line growth inhibition, 48 h
metricName: TGI (µM)

molecule	subjectOfTest	numericValue
COc1ccc2cc1Oc1ccc(cc1)CC1c3cc4c(cc3CCN1C)Oc1c(OC)cc3c(c1O4)C(C2)N(C)CC3 (stereo not given)	KM12 colon	4.57
FC(F)(F)c1nnn[n-]1.[Au+].c1ccc([PH+](c2ccccc2)c2ccccc2)cc1	KM12 colon	42.5
Fc1cnc(NC2CC2)nc1-c1cnc2ccc(N3CCOCC3)cn12	KM12 colon	3.97

* * *

System: HS 578T breast
testSummary: NCI tumour cell line growth inhibition, 48 h
Given measured TGI, output Met if it is greater than or equal to 40 µM and Not met if not.

molecule	group
CN1CCN([C@H]2C[C@H]3[C@@H]4CC=C5C[C@@H](N6CCCC6)CC[C@]5(C)[C@H]4CC[C@]3(C)[C@H]2O)CC1	Met
O=C1Nc2ccccc2C1=Nc1ccc(S(=O)(=O)Nc2nccs2)cc1	Met
CCOC(=O)c1sc2nc(SC)nc3c2c1NCN3C1CC1	Met
COc1ccc2[nH]c(-c3ccccc3)c(/C=C(\C#N)S(=O)(=O)c3ccccc3)c2c1	Met
CC(C)(C)C(=O)N(C(=S)OCc1ccccn1)c1ccccc1	Met
CN(C)CCC=C1c2ccccc2C=Cc2ccccc21	Met
CCCCc1ccc(Nc2cc(=O)n(C)c(=O)[nH]2)cc1	Met
Oc1ccc2ccccc2c1CN(Cc1c(O)ccc2ccccc12)C1CCCCC1	Met
CC(=O)O[C@H]1CCC2(C)C(=CCC3C2CCC2(C)/C(=N/OC(=O)c4ccc(N(CCCl)CCCl)cc4)CCC32)C1 (stereo partly specified)	Not met
Fc1cnc(NC2CC2)nc1-c1cnc2ccc(N3CCOCC3)cn12	Not met
